Tested on: SK-MEL-2 melanoma
test name: NCI-60 one-dose screen, 48 h
stated conditions: 10 µM unless noted
The panel holds about 83,000 compounds, 20% with a hit somewhere; the sample as a whole holds those more often. The source made the active and inactive calls. Rule for the calls: active = growth percent below 10; inactive = the rest.
// classify into true = active, false = inactive

Take a look at these entries with their results.
# compound, discrete label
rows = [
    ("O=C(Nc1ncc(Cc2ccccc2)s1)c1ccc2c(c1)OCCCO2", "false"),
    ("COc1cc(-c2nc3sccn3c2-c2ccnc(NCCNS(=O)(=O)c3ccc(Cl)cc3)n2)ccc1F", "false"),
    ("CCN(CC)c1ccc(/C=N/NC(=O)Cc2ccc(Nc3ccnc(C(F)(F)F)c3)cc2)c(O)c1", "false"),
    ("O=C1c2ccccc2C(=O)c2c1cc1c(c2[N+](=O)[O-])OCO1", "true"),
    ("N#CSc1c[nH]c2cccc(/C=C/C(=O)/C=C(O)/C=C/c3cccc4[nH]cc(SC#N)c34)c12", "true"),
]

Now look at this one.
**Q:** Tell me the recorded outcome of this test for "COC1=C(C)C(=O)N2[C@@H]1[C@H](c1ccccc1)OC21C=CC(=O)C=C1" .
**A:** false

---

Tested on: KM12 colon
test name: NCI-60 one-dose screen, 48 h
stated conditions: 10 µM unless noted
The panel holds about 83,000 compounds, 20% with a hit somewhere; the sample as a whole holds those more often. The source made the active and inactive calls. Rule for the calls: active = growth percent below 10; inactive = the rest.
// classify into TRUE (active), FALSE (inactive)

Take a look at these entries with their results.
# molecule, assay system, discrete label
data = [
    ("O=P(O)(O)OCC1OC(n2cnc3c(NCc4ccco4)ncnc32)C(O)C1O (stereo not drawn)", "KM12 colon", "FALSE"),
    ("COc1ccc(/C=C(/C(=O)n2cnnn2)c2cc(OC)c(OC)c(OC)c2)cc1", "KM12 colon", "FALSE"),
    ("COc1cccc(C(=O)NNc2nc(Cl)nc(Cl)n2)c1", "KM12 colon", "FALSE"),
    ("C[C@@H]1O[C@@H](O[C@@H]2C[C@H](c3ccc4c(c3O)C(=O)C3=C(C4=O)[C@@]4(O)C(=O)C[C@](C)(O)C[C@@]4(O)C=C3)O[C@H](C)[C@H]2O)CC[C@@H]1O[C@H]1C[C@@H](O)[C@H](O)[C@@H](C)O1", "KM12 colon", "FALSE"),
]

**Q:** Tell me the recorded outcome of this test for "COc1cc(C(=O)c2c(-c3ccccc3)oc3c(OC)cccc23)cc(OC)c1OC" .
**A:** TRUE

**Q:** Tell me the recorded outcome of this test for "O=C1/C(=C/c2ccc(O)c(O)c2)COc2ccc(-c3ccccc3)cc21" .
**A:** FALSE

**Q:** Tell me the recorded outcome of this test for "[2H]C([2H])([2H])Oc1ccc(F)cc1/C=C/C(=O)/C=C(/C=C/c1cc(F)ccc1OC([2H])([2H])[2H])OB(F)F" .
**A:** FALSE

**Q:** Tell me the recorded outcome of this test for "COc1cccc(Nc2ncnc3cc(NC(=O)CCl)ccc23)c1" .
**A:** TRUE

---

Test system: HS 578T breast
test name: NCI-60 one-dose screen, 48 h
stated conditions: 10 µM unless noted
The panel holds about 83,000 compounds, 20% with a hit somewhere; the sample as a whole holds those more often. Calls of active or inactive are those of the source. The calls were made as follows: active = growth percent below 10; inactive = the rest.
// classify into active, inactive

Take a look at these entries with their results.
# molecule, discrete label
measured = [
    ("O=C(Cc1cccc(OC(F)(F)F)c1)Nc1ccc(CCCCc2nnc(NC(=O)Cc3ccccn3)s2)nn1", "inactive"),
    ("Cc1ccc2c(=O)cc(C(=O)Nc3sc4c(c3C(=O)NCc3cccnc3)CCCC4)oc2c1C", "inactive"),
]

**Q:** Tell me the recorded outcome of this test for "FC(F)(F)c1ccc(Cn2cc(CSc3nc4ccccc4s3)nn2)cc1" .
**A:** inactive

**Q:** Tell me the recorded outcome of this test for CCN1C(=O)N(CC)C2C1NN=c1s/c(=C\c3cnc(C)n3C)c(=O)n12 (stereo not drawn) .
**A:** active

**Q:** Tell me the recorded outcome of this test for "O=C(/C=C(O)/C=C/c1cccc2[nH]ccc12)/C=C/c1cccc2[nH]ccc12" .
**A:** inactive

**Q:** Tell me the recorded outcome of this test for "CN1C(=O)/C(=C2\SC(=Nc3ccccc3)N(Nc3ccccc3)C2=O)c2ccccc21" .
**A:** inactive

**Q:** Tell me the recorded outcome of this test for CC[N+]1(CC)CC[N+]2(CCCC(C)CC2)CC1 (stereo not drawn) .
**A:** inactive

**Q:** Tell me the recorded outcome of this test for "O=C1/C(=C/c2ccc(O)c(O)c2)COc2ccc(-c3ccccc3)cc21" .
**A:** inactive

**Q:** Tell me the recorded outcome of this test for "Nc1[nH]n2cc(-c3ccc(F)cc3)nc2c1N=Nc1ccc(S(N)(=O)=O)cc1" .
**A:** inactive

**Q:** Tell me the recorded outcome of this test for "CC1(C)NCCC[C@]2(C)[C@H]3CC[C@H]4[C@H]5[C@H](C(=O)/C=C/c6cccnc6)CCC[C@]5(CO)CC[C@@]4(C)[C@]3(C)CC[C@@H]12" .
**A:** inactive

**Q:** Tell me the recorded outcome of this test for "CCOC(=O)c1c(C)nc2c(c1N)/C(=C/c1ccc(OC)cc1)C(=O)N2Cc1ccccc1" .
**A:** inactive

**Q:** Tell me the recorded outcome of this test for "CCN1CCN(CC(=O)Nc2nc3ccc(NCc4ccc(F)cc4)cc3s2)CC1" .
**A:** inactive

**Q:** Tell me the recorded outcome of this test for "COc1ccc(-c2cc(-c3ccccc3)nc(N3CCN(CCNc4ccnc5cc(Cl)ccc45)CC3)n2)cc1" .
**A:** inactive
